- measured on: human glucagon receptor (human) (UniProt P47871)
- Sequence (P47871 26-477): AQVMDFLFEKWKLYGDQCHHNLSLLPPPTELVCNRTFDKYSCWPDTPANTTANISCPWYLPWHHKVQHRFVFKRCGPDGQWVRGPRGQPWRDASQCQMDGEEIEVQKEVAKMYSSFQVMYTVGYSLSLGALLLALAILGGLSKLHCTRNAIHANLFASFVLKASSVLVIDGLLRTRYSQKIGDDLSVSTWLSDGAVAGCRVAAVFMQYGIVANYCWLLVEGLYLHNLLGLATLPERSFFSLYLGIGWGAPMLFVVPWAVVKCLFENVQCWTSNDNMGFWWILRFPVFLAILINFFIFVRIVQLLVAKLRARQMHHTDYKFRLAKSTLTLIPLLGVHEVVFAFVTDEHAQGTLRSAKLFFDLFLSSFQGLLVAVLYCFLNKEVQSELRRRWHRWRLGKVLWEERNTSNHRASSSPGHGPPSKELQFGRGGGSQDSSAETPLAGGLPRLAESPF
- test method notes: cell-based or functional assay
Starred links: 1 amine or outer side, 2 acyl side, 3 side chain; linkers in the order of their positions; H or OH if unused. Non-standard residues stand in square brackets, D forms with d. Groups on a side chain read outwards from the residue. No end group written: not given here. *: point of attachment. C20 diacid = O=C(O)CCCCCCCCCCCCCCCCCCC(=O)*; Phe(4-CN) = N#Cc1ccc(C[C@H](N)C(=O)O)cc1; αMePhe(2-F) = C[C@](N)(Cc1ccccc1F)C(=O)O; γGlu = O=C(O)[C@H](CCC(=O)[*:2])N[*:1]; AEEA = NCCOCCOCC(=O)O; Aib = CC(C)(N)C(=O)O

{"binder": "Y[Aib]QGT[αMePhe(2-F)]TSD[Phe(4-CN)]SILLDKQAQK([AEEA-AEEA-γGlu-C20 diacid])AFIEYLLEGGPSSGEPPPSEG-NH2 [Example 321]", "cAMP Rel EC50 (1% HSA) / nM": 836}
{"binder": "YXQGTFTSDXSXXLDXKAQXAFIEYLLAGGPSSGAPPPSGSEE (non-natural residues; acylated Lys; C-terminal amide; synthetic construct; SITE 2: note = 2-Aminoisobutyric Acid; SITE 10: note = 3-(4-Pyridyl)-L-alanine; SITE 12: note = L-ornithine; SITE 13: note = alpha-methyl-leucine; SITE 16: note = L-ornithine; SITE 17: note = Lysine is chemically modified through conjugation of the epsilon-amino group of the Lys) [Example 1069]", "cAMP Rel EC50 (1% HSA) / nM": 2160}
{"binder": "Y[Aib]QGT[αMePhe(2-F)]TSDFSILLDKQAQKAFIEYLLEGGPSSGEPPPSEG-NH2 (not fully specified (residue 20)) [Example 346]", "cAMP Rel EC50 (1% HSA) / nM": 4310}
{"binder": "YXQGTFTSDXSKXLDKKAQXAFIEXLIEXGPSSGAPPPSGS (Aib, 4Pal, αMeL, Me4Pal; lysine acylated C18 diacid; amide; synthetic construct; SITE 2: note = 2-Aminoisobutyric Acid; SITE 10: note = 3-(4-Pyridyl)-L-alanine; SITE 13: note = alpha-methyl-leucine; SITE 17: note = Lysine is chemically modified through conjugation of the epsilon-amino group of the Lysine side chain with (2-[2-(2-Amino-ethoxy)-ethoxy]-acetyl)) [Example 916]", "cAMP Rel EC50 (1% HSA) / nM": 158}
{"binder": "YXQGTFTSDXSQXLDKKAQXAFIEXLIEXGPSSGEPPPSGSEE (Aib, 4Pal, Me4Pal, αMeL; lipidated Lys; C-terminal amide; synthetic construct; SITE 2: note = 2-Aminoisobutyric Acid; SITE 10: note = 3-(4-Pyridyl)-L-alanine; SITE 13: note = alpha-methyl-leucine; SITE 17: note = Lysine is chemically modified through conjugation of the epsilon-amino group of the Lysine side chain with (gamma-Glu)2-CO-(CH2)16-CO2H; SITE 20:) [Example 1125]", "cAMP Rel EC50 (1% HSA) / nM": 264}
{"binder": "Y[Aib]QGT[αMePhe(2-F)]TSDYSILLDKQAAKAFIEYLIEGGPSSGEPPPSEG-NH2 (not fully specified (residue 20)) [Example 331]", "cAMP Rel EC50 (1% HSA) / nM": 339}
{"binder": "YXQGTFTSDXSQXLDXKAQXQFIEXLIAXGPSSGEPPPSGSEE (non-natural residues; lysine acylated AEEA-γGlu-C18 diacid; C-terminal amide; synthetic construct; SITE 2: note = 2-Aminoisobutyric Acid; SITE 10: note = 3-(4-Pyridyl)-L-alanine; SITE 13: note = alpha-methyl-leucine; SITE 16: note = L-ornithine; SITE 17: note = Lysine is chemically modified through conjugation of the epsilon-amino group of the Lysine side chain with (2-[2-(2-) [Example 1100]", "cAMP Rel EC50 (1% HSA) / nM": 577}
